IC50 data for MMP-10 (Homo sapiens) follow.
readout: IC50 (µM)

# compound, IC50, µM
data = [
    ("O=C(O)[C@@H]1[C@@H](Cn2nnc3ccc(C(F)(F)F)cc3c2=O)CC[C@H]1C(=O)c1ccc(SCc2cccc(Cl)c2)cc1 (single isomer, unassigned) [Example 77]", 0.03),
]

(1) COc1cccc(COc2ccc(C(=O)[C@H]3CC[C@@H](Cn4nnc5ccc(C)cc5c4=O)[C@@H]3C(=O)O)cc2)c1 (racemic) [Example 106]
(2) O=C(O)[C@@H]1[C@@H](Cn2nnc3ccc(C(F)(F)F)cc3c2=O)CC[C@H]1C(=O)c1ccc(OCc2ccc(F)cc2)cc1 (single isomer, unassigned) [Example 13]
# input Among 1 and 2 , whose measured IC50 is the smaller figure? Your choice should be expressed through its label.
# output 2
(2: 0.022 µM, 1: 0.039 µM)

----------
tgt: MMP-2 (Homo sapiens)
Sequence (P08253 110-660): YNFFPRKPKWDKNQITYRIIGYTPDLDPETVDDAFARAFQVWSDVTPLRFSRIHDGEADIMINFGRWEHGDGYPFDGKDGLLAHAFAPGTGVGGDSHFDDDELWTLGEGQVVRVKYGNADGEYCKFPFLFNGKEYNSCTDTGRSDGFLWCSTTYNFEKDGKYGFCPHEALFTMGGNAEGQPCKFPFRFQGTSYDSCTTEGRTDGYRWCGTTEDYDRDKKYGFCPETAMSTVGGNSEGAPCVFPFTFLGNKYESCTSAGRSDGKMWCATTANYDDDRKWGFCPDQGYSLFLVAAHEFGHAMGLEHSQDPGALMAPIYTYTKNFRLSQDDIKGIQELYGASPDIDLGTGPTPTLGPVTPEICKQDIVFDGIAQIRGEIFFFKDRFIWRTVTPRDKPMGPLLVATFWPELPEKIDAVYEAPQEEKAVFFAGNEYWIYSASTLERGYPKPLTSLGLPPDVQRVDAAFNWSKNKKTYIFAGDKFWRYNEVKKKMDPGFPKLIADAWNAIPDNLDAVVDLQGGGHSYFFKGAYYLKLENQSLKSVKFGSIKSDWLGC
readout: IC50 (nM)

# annotated cases, reported IC50 shown
# compound, tgt, unit_name, IC50
data = [
    ("Cc1ccc2nnn(C[C@@H]3CC[C@H](C(=O)c4ccc(OCc5cccc(C(F)(F)F)c5)cc4)[C@H]3C(=O)O)c(=O)c2c1 (racemic) [Example 100]", "MMP-2 (Homo sapiens)", "nM", 540),
    ("O=C(O)[C@H]1[C@H](Cn2nnc3ccc(C(F)(F)F)cc3c2=O)CC[C@@H]1C(=O)c1ccc(OCc2ccccc2)cc1 (racemic) [Example 11]", "MMP-2 (Homo sapiens)", "nM", 210),
]

(A) CCCCCCOc1ccc(C(=O)[C@@H]2CC[C@H](Cn3nnc4ccc(C)cc4c3=O)[C@H]2C(=O)O)cc1 (single isomer, unassigned) [Example 121]
(B) O=C(O)[C@@H]1[C@@H](Cn2nnc3ccc(C(F)(F)F)cc3c2=O)CC[C@H]1C(=O)c1ccc(OCc2cccc(N3CCOC3=O)c2)cc1 (single isomer, unassigned) [Example 35]
# input Lab log: flag the item ( A or B ) with the smaller IC50 figure. Please reply using the label of the selected record.
# output A

(A) COc1cccc(COc2ccc(C(=O)[C@H]3CC[C@@H](Cn4nnc5ccc(C)cc5c4=O)[C@@H]3C(=O)O)cc2)c1 (racemic) [Example 106]
(B) O=C(O)[C@@H]1[C@@H](Cn2nnc3ccc(C(F)(F)F)cc3c2=O)CC[C@H]1C(=O)c1ccc(OCc2ccc(Cl)cc2)cc1 (single isomer, unassigned) [Example 25]
# input Min IC50? A | B Give the chosen item's label as your response.
# output B

(I) O=C(O)[C@@H]1[C@@H](Cn2nnc3ccc(C(F)(F)F)cc3c2=O)CC[C@H]1C(=O)c1ccc(OCc2cccc(Cl)c2)cc1 (single isomer, unassigned) [Example 23]
(II) O=C(O)[C@H]1[C@H](Cn2nnc3ccccc3c2=O)CC[C@@H]1C(=O)c1ccc(OCC2CCCC2)cc1 (racemic) [Example 4]
# input Param pair: I , II . Output: the one whose IC50 is numerically greater. Give the chosen item's label as your response.
# output I

----------
tgt: human macrophage elastase (HME/hMMP-12) (Homo sapiens)
Construct: 0.5 nM HME
Sequence (P39900 106-470): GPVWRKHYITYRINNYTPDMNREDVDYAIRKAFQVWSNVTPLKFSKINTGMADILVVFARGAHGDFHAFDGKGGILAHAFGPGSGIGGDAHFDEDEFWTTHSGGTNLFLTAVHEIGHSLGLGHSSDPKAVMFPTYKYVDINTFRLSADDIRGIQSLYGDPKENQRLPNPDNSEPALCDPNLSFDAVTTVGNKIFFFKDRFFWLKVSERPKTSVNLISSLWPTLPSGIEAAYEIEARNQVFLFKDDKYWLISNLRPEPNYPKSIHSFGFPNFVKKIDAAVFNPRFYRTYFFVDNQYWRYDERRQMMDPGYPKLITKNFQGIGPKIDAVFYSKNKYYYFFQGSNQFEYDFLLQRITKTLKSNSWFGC
procedure_details: In vitro HME inhibition test (standard or high-sensitivity)
protocol_conditions: in some cases mean values
pIC50: −log10 of the molar value.
readout: pIC50

Study these solved cases before continuing.
# molecule, pIC50
measured = [
    ("O=C(O)[C@H]1[C@H](Cn2nnc3ccc(C(F)(F)F)cc3c2=O)CC[C@@H]1C(=O)c1ccc(OCCC2CCCC2)cc1 (racemic)", 10.57),
    ("O=C(O)[C@@H]1[C@@H](Cn2nnc3ccc(C(F)(F)F)cc3c2=O)CC[C@H]1C(=O)c1ccc(SCc2ccccc2)cc1 (single isomer, unassigned) [Example 74]", 6.80),
    ("Cc1ccc2nnn(C[C@@H]3CC[C@H](C(=O)c4ccc(OCc5ccccc5)cc4)[C@H]3C(=O)O)c(=O)c2c1 (racemic)", 10.13),
]

(I) O=C(O)[C@H]1[C@H](Cn2nnc3ccc(C(F)(F)F)cc3c2=O)CC[C@@H]1C(=O)c1ccc(OCC2CCCC2)cc1 (racemic)
(II) O=C(O)[C@H]1[C@H](Cn2nnc3ccc(C(F)(F)F)cc3c2=O)CC[C@@H]1C(=O)c1ccc(OCc2ccc(F)cc2)cc1 (racemic)
# input Would you let me know which has the greater pIC50 value, I or II ? Answer format: the label of the selected item.
# output II

(a) O=C(O)[C@@H]1[C@@H](Cn2nnc3ccc(C(F)(F)F)cc3c2=O)CC[C@H]1C(=O)c1ccc(OCc2ccc(Cl)cc2)cc1 (single isomer, unassigned) [Example 26]
(b) CCCCCOc1ccc(C(=O)[C@H]2CC[C@@H](Cn3nnc4ccc(C(F)(F)F)cc4c3=O)[C@@H]2C(=O)O)cc1 (racemic)
# input // compare measured pIC50 between a and b ; output the lower one Give the label of your selection.
# output a
(a: 9.00, b: 10.82)

(I) Cc1ccc2nnn(C[C@H]3CC[C@@H](C(=O)c4ccc(OCc5ccccc5)cc4)[C@@H]3C(=O)O)c(=O)c2c1 (single isomer, unassigned) [Example 92]
(II) O=C(O)[C@@H]1[C@@H](Cn2nnc3ccc(C(F)(F)F)cc3c2=O)CC[C@H]1C(=O)c1ccc(OCC2CCCC2)cc1 (single isomer, unassigned) [Example 44]
# input Select the item with the higher value of pIC50 from the options I and II listed. Kindly give the label for the entry you pick.
# output II

----------
pIC50: −log10 of the molar value.
Observed pIC50 for mouse MMP-2 (Mus musculus, UniProt P33434), reported per entry below.
readout: pIC50

Worked examples, 4 compounds total:
# compound, readout, meas_value
measured = [
    ("O=C(O)[C@H]1[C@H](Cn2nnc3ccc(C(F)(F)F)cc3c2=O)CC[C@@H]1C(=O)c1ccc(OCCCc2ccccc2)cc1 (racemic)", "pIC50", 5.42),
    ("O=C(O)[C@@H]1[C@@H](Cn2nnc3ccc(C(F)(F)F)cc3c2=O)CC[C@H]1C(=O)c1ccc(OCCC2CCCCC2)cc1 (single isomer, unassigned)", "pIC50", 5.74),
    ("O=C(O)[C@H]1[C@H](Cn2nnc3ccccc3c2=O)CC[C@@H]1C(=O)c1ccc(OCc2cccc(Cl)c2)cc1 (racemic)", "pIC50", 6.40),
    ("Cc1ccc2nnn(C[C@@H]3CC[C@H](C(=O)c4ccc(OCc5cccc(Cl)c5)cc4)[C@H]3C(=O)O)c(=O)c2c1 (racemic)", "pIC50", 6.43),
]

(I) CCCCCCOc1ccc(C(=O)[C@@H]2CC[C@H](Cn3nnc4ccc(C)cc4c3=O)[C@H]2C(=O)O)cc1 (single isomer, unassigned)
(II) O=C(O)[C@@H]1[C@@H](Cn2nnc3ccc(C(F)(F)F)cc3c2=O)CC[C@H]1C(=O)c1ccc(OCc2cccc(Cl)c2)cc1 (single isomer, unassigned)
(III) O=C(O)[C@H]1[C@H](Cn2nnc3ccc(C(F)(F)F)cc3c2=O)CC[C@@H]1C(=O)c1ccc(OCc2ccccc2)cc1 (racemic)
(IV) COC(=O)Nc1cccc(COc2ccc(C(=O)[C@@H]3CC[C@H](Cn4nnc5ccc(C(F)(F)F)cc5c4=O)[C@H]3C(=O)O)cc2)c1 (stereo in doubt)
# input Sort the 4 compounds by pIC50; largest first, smallest last. Answer by writing out the labels in the requested order.
# output III, I, IV, II
(III: 6.60, I: 6.38, IV: 6.00, II: 5.62)

----------
tgt: MMP-8 (Homo sapiens, UniProt P22894)
Sequence (P22894 101-467): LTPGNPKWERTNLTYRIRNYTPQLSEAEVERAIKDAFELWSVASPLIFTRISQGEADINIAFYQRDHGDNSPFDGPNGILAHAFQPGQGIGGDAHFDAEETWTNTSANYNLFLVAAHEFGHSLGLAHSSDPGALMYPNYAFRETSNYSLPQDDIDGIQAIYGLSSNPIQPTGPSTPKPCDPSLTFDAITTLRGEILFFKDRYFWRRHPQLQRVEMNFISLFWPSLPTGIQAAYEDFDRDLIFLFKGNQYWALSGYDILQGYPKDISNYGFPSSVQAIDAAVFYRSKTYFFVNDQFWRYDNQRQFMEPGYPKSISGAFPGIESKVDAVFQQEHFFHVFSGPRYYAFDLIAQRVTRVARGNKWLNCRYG
pIC50: −log10 of the molar value.
readout: pIC50

(I) O=C(O)[C@H]1[C@H](Cn2nnc3ccccc3c2=O)CC[C@@H]1C(=O)c1ccc(OCc2ccc(F)cc2)cc1 (racemic)
(II) O=C(O)[C@@H]1[C@@H](Cn2nnc3ccc(C(F)(F)F)cc3c2=O)CC[C@H]1C(=O)c1ccc(OCCC2CCCC2)cc1 (single isomer, unassigned)
(III) Cc1cccc(COc2ccc(C(=O)[C@@H]3CC[C@H](Cn4nnc5ccc(C)cc5c4=O)[C@H]3C(=O)O)cc2)c1 (single isomer, unassigned)
# input // ascending sort on recorded pIC50 Response format: the labels, sorted as the prompt asks.
# output III, II, I
(III: 7.19, II: 7.52, I: 8.60)

----------
Below are pIC50 values recorded for MMP-16 (Homo sapiens).
pIC50: −log10 of the molar value.
readout: pIC50

(A) COC(=O)Nc1cccc(COc2ccc(C(=O)[C@@H]3CC[C@H](Cn4nnc5ccc(C(F)(F)F)cc5c4=O)[C@H]3C(=O)O)cc2)c1 (stereo in doubt) [Example 31]
(B) O=C(O)[C@@H]1[C@@H](Cn2nnc3ccc(C(F)(F)F)cc3c2=O)CC[C@H]1C(=O)c1ccc(OCc2cccc(N3CCOC3=O)c2)cc1 (single isomer, unassigned) [Example 35]
# input For this pair, A and B , which shows a numerically higher pIC50? Kindly state the label of the option you pick.
# output B

----------
pIC50: −log10 of the molar value.
Measured pIC50 on mouse MMP-7 (Mus musculus) follows.
Sequence (Q10738 95-264): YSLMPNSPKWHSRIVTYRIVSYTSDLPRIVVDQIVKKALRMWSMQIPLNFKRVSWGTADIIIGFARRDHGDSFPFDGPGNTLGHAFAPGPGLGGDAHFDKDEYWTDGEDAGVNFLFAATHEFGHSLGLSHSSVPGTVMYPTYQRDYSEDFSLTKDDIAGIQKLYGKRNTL
readout: pIC50

# compound, tgt, readout, meas_value
data = [
    ("CCCCCOc1ccc(C(=O)[C@H]2CC[C@@H](Cn3nnc4ccc(C)cc4c3=O)[C@@H]2C(=O)O)cc1 (racemic) [Example 123]", "mouse MMP-7 (Mus musculus)", "pIC50", 7.00),
]

(I) Cc1cccc(COc2ccc(C(=O)[C@@H]3CC[C@H](Cn4nnc5ccc(C)cc5c4=O)[C@H]3C(=O)O)cc2)c1 (single isomer, unassigned) [Example 98]
(II) O=C(O)[C@@H]1[C@@H](Cn2nnc3ccc(C(F)(F)F)cc3c2=O)CC[C@H]1C(=O)c1ccc(OCc2cccc(Cl)c2)cc1 (single isomer, unassigned) [Example 23]
(III) O=C(O)[C@H]1[C@H](Cn2nnc3ccc(C(F)(F)F)cc3c2=O)CC[C@@H]1C(=O)c1ccc(OCCCc2ccccc2)cc1 (racemic) [Example 39]
# input Rank order required: pIC50, descending. Give the labels in the order requested.
# output I, II, III

(P) O=C(O)[C@H]1[C@H](Cn2nnc3ccc(C(F)(F)F)cc3c2=O)CC[C@@H]1C(=O)c1ccc(OCC2CCCCC2)cc1 (racemic) [Example 40]
(Q) O=C(O)[C@H]1[C@H](Cn2nnc3ccc(C(F)(F)F)cc3c2=O)CC[C@@H]1C(=O)c1ccc(OCc2ccccc2)cc1 (racemic) [Example 11]
# input Out of P and Q , name the one with the higher pIC50. State your choice using its label.
# output Q
